Tested on: SK-MEL-5 melanoma
method.description: NCI tumour cell line growth inhibition, 48 h
measurement.label: TGI

Lookup: Value wanted: TGI (SK-MEL-5 melanoma) of entry CCCCCCC1CC(=O)C1(Cl)Cl (configuration not stated)
Found: 31.2 µM

Lookup: Value wanted: TGI (SK-MEL-5 melanoma) of entry Cc1[nH]n(-c2cccc(Cl)c2)c(=O)c1/C=C1\C=c2ccccc2=CC1=O
Found: > 100 µM

Lookup: Value wanted: TGI (SK-MEL-5 melanoma) of entry CNCCN(C)Cc1cn[nH]c1-c1ccc(OC2CC(OCCC3CCOCC3)C2)cc1 (configuration not stated)
Found: > 100 µM

Lookup: Value wanted: TGI (SK-MEL-5 melanoma) of entry C[N+](C)(C)CCOP(=O)([O-])OCCNC(=O)c1ccc2ccccc2c1
Found: > 100 µM

Lookup: Value wanted: TGI (SK-MEL-5 melanoma) of entry COC(CC1(OC)OC(=O)C=C1N)OC (configuration not stated)
Found: > 100 µM

Lookup: Value wanted: TGI (SK-MEL-5 melanoma) of entry c1ccc2c3nnc(c2c1)SCCCSc1nnc(c2ccccc12)SCCCS3
Found: 72.2 µM

Lookup: Value wanted: TGI (SK-MEL-5 melanoma) of entry Cc1cc(-c2cscn2)c(O)c([N+](=O)[O-])c1
Found: > 100 µM

Lookup: Value wanted: TGI (SK-MEL-5 melanoma) of entry O=C(c1ccccc1)N1CCC(Nc2nccs2)O1 (configuration not stated)
Found: > 10 µM

Lookup: Value wanted: TGI (SK-MEL-5 melanoma) of entry COC(=O)/C(=N/NC(C)(C)C)C(C(=O)OC)C(=O)C(=O)Nc1nc2ccc([N+](=O)[O-])cc2s1 (configuration not stated)
Found: > 100 µM

Lookup: Value wanted: TGI (SK-MEL-5 melanoma) of entry CC(C)COC(c1ccc2c(c1)OCO2)C(C)Br (configuration not stated)
Found: 36.4 µM

Lookup: Value wanted: TGI (SK-MEL-5 melanoma) of entry CC1(C=O)CCC23COC4(CCC5C6(C)CCC(OC7OCC(OC8OC(CO)C(O)C(OC9OC(CO)C(O)C(O)C9O)C8OC8OCC(O)C(O)C8O)C(O)C7OC7OC(CO)C(O)C(O)C7O)C(C)(C)C6CCC5(C)C4(C)CC2O)C3C1 (configuration not stated)
Found: 2.96 µM

Lookup: Value wanted: TGI (SK-MEL-5 melanoma) of entry Cc1nc2ccc(N)cc2[nH]c1=O
Found: > 100 µM

Lookup: Value wanted: TGI (SK-MEL-5 melanoma) of entry O=C(O)c1cn(C2CC2)c2cc(N3CCN(Cc4ccc5ccccc5c4O)CC3)c(F)cc2c1=O
Found: > 100 µM

Lookup: Value wanted: TGI (SK-MEL-5 melanoma) of entry COc1cc(NC(=O)c2ccccc2Nc2ccnc(C(F)(F)F)c2)cc(OC)c1OC
Found: > 100 µM

Lookup: Value wanted: TGI (SK-MEL-5 melanoma) of entry N=c1oc2ccccc2cc1C(=O)Nc1nccs1
Found: > 100 µM

Lookup: Value wanted: TGI (SK-MEL-5 melanoma) of entry COc1ccc(/C=C2\N=C(c3ccccc3)OC2=O)cc1OC(C)=O
Found: > 100 µM

Lookup: Value wanted: TGI (SK-MEL-5 melanoma) of entry CC(=O)Oc1ccc(/C=C/C(=O)OCCOC(=O)/C=C/c2ccc(OC(C)=O)c(OC(C)=O)c2)cc1OC(C)=O
Found: 20.1 µM

Lookup: Value wanted: TGI (SK-MEL-5 melanoma) of entry COc1ccc2nc3c([N+](=O)[O-])ccc(NCCN(C)C)c3c(NCCN(C)C)c2c1
Found: 3.28 µM

Lookup: Value wanted: TGI (SK-MEL-5 melanoma) of entry CC1(C)OC(=O)C(=Cc2ccc([N+](=O)[O-])s2)C(=O)O1
Found: 30 µM

Lookup: Value wanted: TGI (SK-MEL-5 melanoma) of entry CCOP(=O)(OCC)C(Nc1cccc(F)c1)c1ccc(N(C)C)cc1 (configuration not stated)
Found: > 100 µM

Lookup: Value wanted: TGI (SK-MEL-5 melanoma) of entry Cn1cc(C2=C(c3c(S(C)=O)n(C)c4ccccc34)C(=O)NC2=O)c2ccccc21 (configuration not stated)
Found: > 25 µM

Lookup: Value wanted: TGI (SK-MEL-5 melanoma) of entry CCCCCC1=C2C(c3ccc(OC)cc3)=C(N)C(c3ccc(OC)cc3)=C3NC(=O)C(C=C1)C32 (configuration not stated)
Found: > 100 µM

Lookup: Value wanted: TGI (SK-MEL-5 melanoma) of entry COC1=CC(=O)C2C(C1=O)C(c1ccc(Cl)cc1)[C@@H]2C (some centres not stated)
Found: 41.2 µM

Lookup: Value wanted: TGI (SK-MEL-5 melanoma) of entry c1cc2c(c(NC3=NCCN3)c1)CCCC2
Found: > 100 µM

Lookup: Value wanted: TGI (SK-MEL-5 melanoma) of entry COc1cc2c(cc1OC)C(=O)/C(=C/c1cc(Cl)cc(Cl)c1)C2
Found: > 24.1 µM

Lookup: Value wanted: TGI (SK-MEL-5 melanoma) of entry O=C(NC(Cc1ccc(I)cc1)C(=O)O)c1ccc(Cl)cc1 (configuration not stated)
Found: > 100 µM

Lookup: Value wanted: TGI (SK-MEL-5 melanoma) of entry O=C(NNC(=O)c1ccccc1O)c1ccco1
Found: > 100 µM
